Attribute: TGI
# System: BT-549 breast
# MEASUREMENT NOTES: NCI tumour cell line growth inhibition, 48 h
READOUT NAME: TGI (µM)

C[C@H]1CCC2C(OC(=O)[C@@H]2CN(C)C)[C@]2(C)C(=O)C=CC12O (stereo not given in full)    25.2
CCOc1ccccc1N=Cc1c2ccccc2cc2ccccc12    70.1
Cc1ccsc1/C=N/Nc1cc(C)c2ccccc2n1    44.8
N=C(N)c1ccc(-c2ccc(-c3ccc(Cl)cc3Cl)s2)nc1    28.6
COc1ccc(F)cc1-c1ccnc2[nH]c(C3=CCN(C4CCC(CC(=O)O)CC4)CC3)cc12 (stereo not given)    0.903
COc1ccc(/N=N/C(=NNC(=O)c2ccc(C)cc2)c2ccc(N(C)C)cc2)cc1    82.9
COc1ccc(C2C3=C(COC3=O)N(CCO)c3cc4c(cc32)CCC4)cc1 (stereo not given)    25.2
O=[N+]([O-])c1ccc2nc(-c3ccc(Cl)cc3)[nH]c2c1    64.6

====

# Tested on: SK-MEL-2 melanoma
# MEASUREMENT NOTES: NCI tumour cell line growth inhibition, 48 h
READOUT NAME: TGI (µM)

CC1=NN(c2nc(N)nc(-c3cc4ccccc4oc3=N)n2)C(C)(C)C1    41.8
CNC(=O)C1OC(n2cnc3c(NCc4cccc(I)c4)nc(Cl)nc32)C(O)C1O (centres undefined)    27.8
COC(=O)/C=C\C(C#N)(C#N)N=Cc1ccc(Br)cc1    44
CC1(C2CCC3(C)C(C2)C3Sc2ccccc2)OCCO1 (centres undefined)    34.3
CC1=C(SCCC(=O)OC(C[Se]C2=C(C)C(=O)c3ccccc3C2=O)C(=O)NC(C)(C)C)C(=O)c2ccccc2C1=O (centres undefined)    3.65
CC(=O)c1c(O)cc(O)c(-c2c(C)cc(O)c3c2C(=O)c2cccc(O)c2C3=O)c1O    34.2
Cc1cc(O)c(C(C)C)cc1C(=S)Nc1ccc(Cl)cc1    27.8
COc1ccc(/C=C2/CSC/C(=C/c3ccc(OC)c(OC)c3)C2=O)cc1OC    7.61
N=C1C=C(N)C(=O)c2ccccc21    0.373
ClC1=C(Cl)C2OC3C=CCC3OC2C(Cl)=C1Cl (centres undefined)    48.1

====

Attribute: TGI
# System: NCI-H522 lung
# MEASUREMENT NOTES: NCI tumour cell line growth inhibition, 48 h
READOUT NAME: TGI

COc1ccc(C2C3=C(COC3=O)N(CCO)c3cc4c(cc32)CCC4)cc1 (stereo unspecified)    3.73 µM
Cc1ccc(S(=O)(=O)NC(=O)NC(CC(=O)O)C(=O)O)cc1 (stereo unspecified)    > 100 µM
CCOC(=O)C1CCCN1C(=O)c1ccccc1Cl (stereo unspecified)    > 100 µM
Nc1ccn(CC(O)c2cc3ccccc3[nH]2)c(=O)n1 (stereo unspecified)    > 100 µM
O=C(N/C(=C\c1ccc(F)cc1)c1nc2ccccc2[nH]1)c1ccccc1    > 100 µM
CCOP(=O)(Cc1nc(C#N)c(N)o1)OCC    > 100 µM
CC1=CC(=O)N2C(OC[C@@H]2c2ccccc2)O1 (stereo partly specified)    > 100 µM
COC(=O)C(C)Oc1ccc(O)cc1 (stereo unspecified)    > 100 µM
CN1C/C(=C\c2cccs2)C(=O)/C(=C/c2cccs2)C1    > 100 µM
COC(=O)/C=C\C(C#N)(C#N)N=Cc1ccc(Br)cc1    2.95 µM
C[C@@H]1Cc2c(ccc3[nH]ncc23)[C@@H](c2ccc(NC3CN(CCCF)C3)cn2)N1CC(F)(F)F    45.7 µM

====

# Tested on: UACC-62 melanoma
# MEASUREMENT NOTES: NCI tumour cell line growth inhibition, 48 h
READOUT NAME: TGI

NC(=O)c1nc(-c2ccc(Cl)c(Cl)c2)nc2ccccc12    > 100 µM
CN1CCN(c2nc3cc(F)ccc3n3cccc23)CC1    80.4 µM
O=c1onc(Nc2ccccc2)n1-c1ccccc1    > 100 µM
C=C(CN1CCN(c2ccc(F)c(Cl)c2)CC1)c1ccc(C(=O)Nc2ccccc2N)cc1    54.3 µM
CC(C)(C)CC(C)(C)NCC(O)COc1ccc(C(C)(C)c2ccc(OCC(O)CNC(C)(C)CC(C)(C)C)cc2)cc1 (stereo unspecified)    3.31 µM
NC1=C(O)C(=O)C(c2c[nH]c3ccc(OCc4ccccc4)cc23)O1 (stereo unspecified)    > 100 µM

====

Attribute: TGI
# Tested on: A498 renal
# MEASUREMENT NOTES: NCI tumour cell line growth inhibition, 48 h
READOUT NAME: TGI

CCCCCCCCc1cc(O)ccc1O    36 µM
CC(=O)[O][Hg][c]1s[c]([Hg][O]C(C)=O)[c]([Hg][O]C(C)=O)[c]1[Hg][O]C(C)=O    35.1 µM
Fc1ccc2c(c1)nc1n2C(c2c(F)cccc2F)SC1 (stereo not given)    > 100 µM
c1ccc(OCc2nnc(CCCCCCCCc3nnc(COc4ccccc4)o3)o2)cc1    > 100 µM
COc1ccc(F)cc1-c1ccnc2[nH]c(C3=CCN(C4CCC(CC(=O)O)CC4)CC3)cc12 (stereo not given)    0.543 µM

====

Attribute: TGI
# System: A498 renal
# MEASUREMENT NOTES: NCI tumour cell line growth inhibition, 48 h
READOUT NAME: TGI (µM)

O/N=C1\C(=C\c2ccc3c(c2)OCCO3)CCCC1C(NO)c1ccc2c(c1)OCCO2 (stereo not given)    60
COc1cc([C@@H]2c3cc4c(cc3[C@@H](NCc3cccc(F)c3)C3COC(=O)[C@@H]32)OCO4)cc(OC)c1O (stereo not given in full)    13.1
O=C(Cn1c(=O)oc2ccc(C(=O)c3cccc(Cl)c3)cc21)c1ccccc1    95.8
CCN(CC)CCNc1ccc([N+](=O)[O-])c2nc3ccc(OC)cc3c(N)c12    3.08

====

Attribute: log10(TGI)
# Test system: SNB-75 CNS
# MEASUREMENT NOTES: NCI tumour cell line growth inhibition, 48 h
READOUT NAME: log10(TGI) (log10 of the value in µM)

NC1=Nc2ccccc2Sc2ccccc21    1.73
O=S(=O)(Nc1ccc(Cl)c(Cl)c1)c1ccc(-c2cnc(C3CC3)o2)cc1    -0.25
COc1ccc(C2=Nc3c(nc(SC)[nH]c3=O)NC(c3ccccc3)C2)cc1 (stereo not given)    1.69
Cn1cc(-c2csc(-c3cn(C(=O)OC(C)(C)C)c4ccccc34)n2)c2cccnc21    0.94
COc1ccc(C2C3=C(COC3=O)N(CCO)c3cc4c(cc32)CCC4)cc1 (stereo not given)    1.14

====

# Tested on: OVCAR-5 ovarian
# MEASUREMENT NOTES: NCI tumour cell line growth inhibition, 48 h
READOUT NAME: GI50

COc1ccc2c(c1)C=CC1C2CC[C@]2(C)C(NC(=O)/C=C/c3ccc(O)c(O)c3)CCC12 (stereo partly drawn)    20.1 µM
CC[C@@H](C(=O)[C@@H](C)[C@@H](O)[C@H](C)[C@@H]1O[C@@H]([C@@H](CC)C(=O)O)CC[C@@H]1C)[C@H]1O[C@]2(C=C[C@@H](O)[C@]3(CC[C@@](C)([C@H]4CC[C@](O)(CC)[C@H](C)O4)O3)O2)[C@H](C)C[C@@H]1C    6.61 µM
C1CC[N-]CC1.CC(=N\O)/C(C)=N/O.CC(=N\O)/C(C)=N/O.C[CH-]C(C)O.[Co+2]    35.1 µM

====

Attribute: GI50
# System: M14 melanoma
# MEASUREMENT NOTES: NCI tumour cell line growth inhibition, 48 h
READOUT NAME: GI50

COc1ccc(C2C3=C(COC3=O)N(CCO)c3cc4c(cc32)CCC4)cc1 (centres undefined)    2.32 µM
O=C(N/N=C/c1ccc(N(CCCl)CCCl)cc1)c1ccc(C(=O)N/N=C/c2ccc(N(CCCl)CCCl)cc2)cc1    3.79 µM
CCSc1nc(N)c2cnn(CC)c2n1    15.1 µM
CN(C)CCOc1ccc2c(c1)C(=O)/C(=C\c1ncc([N+](=O)[O-])n1C)C2    0.543 µM

====

Attribute: TGI
# Tested on: HS 578T breast
# MEASUREMENT NOTES: NCI tumour cell line growth inhibition, 48 h
READOUT NAME: TGI

O=C1C=CC(=O)c2c(O)c(N(CCCl)CCCl)c(Cl)c(O)c21    > 10 µM
CC(C)(C)OC(=O)NNCC(O)COc1ccccc1 (stereo unspecified)    > 100 µM
Cc1ccc(S(=O)(=O)NC(=O)NC(CC(=O)O)C(=O)O)cc1 (stereo unspecified)    > 100 µM
CC1C(c2ccccc2)NC(c2ccccc2)CC1(N)C#N (stereo unspecified)    > 100 µM
CCOc1ccccc1N=Cc1c2ccccc2cc2ccccc12    > 53.9 µM
O=C1CC2OCC=C3CN4CCC5(C(=O)O)C(N1)C2C3CC45 (stereo unspecified)    > 100 µM
O=[N+]([O-])c1ccc2nc(-c3ccc(Cl)cc3)[nH]c2c1    71.7 µM
COc1ccc(/C=C(/c2ccc(OC)cc2)c2c(Cl)cc(Cl)c(/C(=C\c3ccc(OC)cc3)c3ccc(OC)cc3)c2N=Nc2ccccc2)cc1    > 100 µM
COc1cc(-c2nc(SC)nc3c2CCc2ccccc2-3)cc(OC)c1OC    > 100 µM
CCCCCCCCc1cc(O)ccc1O    53.5 µM
CCCCOc1ccc(S(=O)(=O)/N=C(\NO)Nc2ccc(Cl)cc2)cc1    51.3 µM
